- Tested on: LOX IMVI melanoma
- assay comment: NCI-60 one-dose screen, 48 h
- recorded conditions: 10 µM unless noted
About 83,000 compounds went through this panel and 20% of them were active in at least one assay; those are over-represented in the sample as a whole. Active and inactive are the calls of the source. Rule for the calls: active = growth percent below 10; inactive = the rest.
Classes used: active, inactive

- smi: "O=C(c1ccccc1)[C@@H](c1ccccc1)[C@]1(O)C(=O)Nc2ccccc21"
  qualitative label: "inactive"
- smi: "Clc1ccc2c(NCCCn3cnc4c(N5CCCC5)nc(Cl)nc43)ccnc2c1"
  qualitative label: "inactive"
- smi: "COc1ccc(-c2ccc(-c3ccc(C(=N)N)nc3)s2)cc1"
  qualitative label: "active"
- smi: "CC(=O)O[C@H]1CC[C@@]2(C)C(=CC[C@@H]3[C@@H]2CC[C@]2(C)C(Cl)=C(c4nc5ccc(Cl)cn5c4NC(C)(C)C)C[C@@H]32)C1"
  qualitative label: "inactive"
- smi: "CCOC(=O)c1c(C)c2c(n1Cc1ccccc1)CSc1cc(C#N)c(=O)[nH]c1-2"
  qualitative label: "inactive"
- smi: "COc1ccc(-c2cc(-c3ccc(Nc4nc(Nc5ccc(Cl)cc5)nc(Nc5ccc(Cl)cc5)n4)cc3)no2)cc1"
  qualitative label: "inactive"
- smi: "COC(=O)CCc1c(/C=C2\\N=C(c3ccc[nH]3)C=C2OC)[nH]c(C)c1C(=O)OCc1ccccc1"
  qualitative label: "active"
- smi: "C(CCCSC1=NCCN1)CCSC1=NCCN1"
  qualitative label: "inactive"
- smi: "O=C(/C=C/c1ccco1)Nc1ncc(Cc2ccc(F)cc2)s1"
  qualitative label: "inactive"
- smi: "Cc1cc([N+](=O)[O-])ccc1NC(=O)c1ccc2c(c1)nc(-c1ccccc1)n2C1CCCCC1"
  qualitative label: "inactive"

---

- System: SK-OV-3 ovarian
- assay comment: NCI-60 one-dose screen, 48 h (100 = growth as untreated, 0 = no growth, -100 = all killed)
- recorded conditions: 10 µM unless noted
This is part of a sample that, as a whole, favours compounds with a hit. Of some 83,000 tested, about 20% had one in any assay.
Measured growth, listed per entry for reference.

- molecule: "CN1CCN(Cc2ccc(NC(=O)c3cncc(C#Cc4c(N)ncc5ccccc45)c3)cc2C(F)(F)F)CC1"
  growth / %: 8.37
- molecule: "O=C1CC2C=CCN2C=C1NC(=O)c1ccccc1 (stereo not given)"
  growth / %: 113
- molecule: "COc1cc(NC(=O)c2cncnc2Nc2ccc3c(ccn3Cc3cccc(F)c3)c2)cc(OC)c1"
  growth / %: 67
- molecule: "Cn1ccnc1C(=O)/C=C/c1ccc(C(=O)Nc2c(F)c(F)c(F)c(F)c2F)cc1"
  growth / %: 62.1
- molecule: "O=C(Nc1ccccc1)Nc1ccccc1CNc1nc(Nc2ccc(OCCN3CCCC3)cc2)ncc1Cl"
  growth / %: 86.1
- molecule: "COc1ccc(NC(=O)c2ccc(NC3=C(c4ccc(Cl)cc4)C(=O)NC3=O)cc2)cc1"
  growth / %: 69.8
- molecule: "O=C(CN1C(=O)NC2NC(=O)NC21)N/N=C/c1cccc([N+](=O)[O-])c1 (stereo not given)"
  growth / %: 108
- molecule: "N#Cc1c(-c2ccc(F)cc2)cc(-c2cccc(Cl)c2)[nH]c1=O"
  growth / %: 79.3
- molecule: "O=C1NCCS(=O)(=O)/C1=C\\C=C\\c1cccc(C(F)(F)F)c1"
  growth / %: 85.8
- molecule: "CCCCCCCCNc1ncnc2c1ncn2Cc1nnc2c3ccccc3c(Cl)nn12"
  growth / %: 4.2
- molecule: "COC12C=C/C(=C(/C(=O)OCc3ccccn3)C(=O)CCCCCCCCC3(OC)C=C/C(=C(/C(=O)OCc4ccccn4)C(=O)CCCCCCCC1)O3)O2"
  growth / %: 46.3
- molecule: "CC/C(=C(/c1ccc(Cl)cc1)c1ccc(OCCCN(C)C)cc1)c1ccc(OC)cc1"
  growth / %: 102
- molecule: "CC(=O)c1ccc(Nc2nccc(-c3ccc(Cl)cc3)n2)cc1"
  growth / %: 108
- molecule: "CN(C)CC1C(=O)O[C@H]2[C@H]1CC/C(COC(=O)NCc1ccc(Cn3c(=O)sn(CCCI)c3=O)cc1)=C\\CC[C@@]1(C)O[C@@H]21 (stereo not given in full)"
  growth / %: 99.5
- molecule: "CCOc1ccc(N2C(=O)CCSC2=S)cc1"
  growth / %: 101
- molecule: "CN1/C(=C/C=C/c2n(Cc3ccc4ccccc4c3)c(Cl)c(Cl)[n+]2Cc2ccc3ccccc3c2)Oc2ccccc21"
  growth / %: -57.2
- molecule: "CS(=O)(=O)c1ccc(/C(=N/NC(N)=S)c2ccc(F)cc2)cc1"
  growth / %: 112
- molecule: "COc1cc(/C=C/c2cc(/C=C/c3ccc(O)c(OC)c3)n(C(=O)Nc3ccc(C)cc3C)n2)ccc1O"
  growth / %: -63.6
- molecule: "CN1C(=O)N(C)C2C1NN=c1s/c(=C\\c3ccccc3F)c(=O)n12 (stereo not given)"
  growth / %: 33.8
- molecule: "Oc1ccc(C2OCCO2)c2cccnc12"
  growth / %: 93.5
- molecule: "CSc1nc(N)c2c(n1)NC(c1ccccc1)C1CCc3ccccc3C1=N2 (stereo not given)"
  growth / %: 85.8
- molecule: "Cc1c(C)c2c(c(C)c1OC(=O)CCC(=O)[O-])CCC(C)(CCCCCCCCCCC[P+](c1ccccc1)(c1ccccc1)c1ccccc1)O2 (stereo not given)"
  growth / %: -27
- molecule: "CC1=C(C(=O)OCc2ccccc2)C(c2ccc3c(c2)OCO3)n2c(nc3ccccc32)N1 (stereo not given)"
  growth / %: 41.7
- molecule: "CO[C@H]1CC(c2ccc[nH]2)=N[C@]12O[C@@H](C)C[C@@H]1CCCCCCCc3ccc([nH]3)[C@H]12"
  growth / %: 30
- molecule: "O=c1[nH]c(CN2CCN(c3ccccc3)CC2)nc2c(Br)cc(Br)cc12"
  growth / %: 96.4
- molecule: "CCOC(=O)C#Cc1c(CC(=O)OCC)nnn1[C@H]1O[C@@H](CO)[C@@H]2OC(C)(C)O[C@@H]21"
  growth / %: 94.4
- molecule: "COc1cc(C(=O)/C=C/c2c(-c3cccs3)nc3sc(C)cn23)cc(OC)c1OC"
  growth / %: 12.4
- molecule: "C=CCn1c(SCC(=O)Nc2ccc(C(=O)/C=C/c3ccc(Cl)cc3)cc2)nnc1-c1ccc(Cl)c(Cl)c1"
  growth / %: 85.7
- molecule: "COc1ccc(-c2csc(NC(=O)CSc3nc(C)cc(=O)[nH]3)n2)cc1"
  growth / %: 102
- molecule: "O=C(OCc1ccc2c(Br)cc(Br)c(O)c2n1)N1CCN(C(=O)c2cc3ccccc3[nH]2)CC1"
  growth / %: 40.1
- molecule: "CC(C)(C)c1ccc(C(=O)Nc2sc3c(c2C#N)CCC(=O)C3)cc1"
  growth / %: 57.4
- molecule: "Nc1nc(N)c2c(n1)NC(c1cccc(Nc3ccnc4cc(C(F)(F)F)ccc34)c1)CC(c1ccc(Cl)cc1)=N2 (stereo not given)"
  growth / %: 64.9
- molecule: "COc1ccc(/C=C/C(=O)c2ccc(-n3cc(CN4CCN(c5cc6c(cc5F)c(=O)c(C(=O)O)cn6C5CC5)CC4)nn3)cc2)cc1"
  growth / %: 76.9
- molecule: "COc1cc(-c2c(-c3ccccc3)c[nH]c2C(=O)NCCCO)c(OC)c2c1OCO2"
  growth / %: 96.4
- molecule: "Cc1c(C(=O)C(SC(=S)N2CCOCC2)SC(=S)N2CCOCC2)nnn1-c1ccc([N+](=O)[O-])cc1"
  growth / %: 93.3
